Source listed as patent US20230340012A1.

- Test system: cancer cells
- measurement_notes: MTT cytotoxic assay of esterification products (Cytotoxicity activity)
- Format: cell-based, human
- conditions_used: esterification products isolated with HPLC; graded strong / moderate / weak
measurement_name: Cytotoxicity activity

CC=C(C)C(=O)OCC1(C)C(OC(=O)C(C)=CC)CCC2(C)C1CCC1(C)C2CC=C2C3CC(C)(C)C(O)C(OC(=O)C(C)=CC)C3(COC(=O)C(C)=CC)C(O)CC21C (stereo not drawn); weak
CC=C(C)C(=O)OCC1(C)C(O)CCC2(C)C1CCC1(C)C2CC=C2C3CC(C)(C)C(OC(C)=O)C(OC(C)=O)C3(COC(=O)C(C)=CC)C(O)CC21C (stereo not drawn); weak

###

- Test system: cancer cells
- measurement_notes: MTT cytotoxic assay of esterification products (Cytotoxicity activity)
- Type: cell-based, human
- conditions_used: esterification products of core compound E4A with Isobutyryl chloride (Iso = Isobutyryl)
measurement_name: Cytotoxicity activity

Observe how each entry below is paired with its result.
CC1(C)CC2C3=CCC4C5(C)CCC(O)C(C)(COC(=O)c6ccccc6)C5CCC4(C)C3(C)CC(O)C2(CO)C(O)C1OC(=O)c1ccccc1 (stereo not shown) [Compound K29]; moderate
CC1(C)CC2C3=CCC4C5(C)CCC(O)C(C)(CO)C5CCC4(C)C3(C)CC(O)C2(COC(=O)c2ccccc2)C(OC(=O)c2ccccc2)C1OC(=O)c1ccccc1 (stereo not shown) [Compound K20]; moderate
CC1(C)CC2C3=CCC4C5(C)CCC(OC(=O)c6ccccc6)C(C)(COC(=O)c6ccccc6)C5CCC4(C)C3(C)CC(OC(=O)c3ccccc3)C2(COC(=O)c2ccccc2)C(O)C1OC(=O)c1ccccc1 (stereo not shown) [Compound K17]; weak
CC1(C)CC2C3=CCC4C5(C)CCC(O)C(C)(CO)C5CCC4(C)C3(C)CC(OC(=O)c3ccccc3)C2(CO)C(OC(=O)c2ccccc2)C1OC(=O)c1ccccc1 (stereo not shown) [Compound K22]; moderate
CC1(C)CC2C3=CCC4C5(C)CCC(OC(=O)c6ccccc6)C(C)(COC(=O)c6ccccc6)C5CCC4(C)C3(C)CC(O)C2(COC(=O)c2ccccc2)C(OC(=O)c2ccccc2)C1OC(=O)c1ccccc1 (stereo not shown) [Compound K15]; weak

Cytotoxicity activity reading for CC1(C)CC2C3=CCC4C5(C)CCC(O)C(C)(CO)C5CCC4(C)C3(C)CC(O)C2(COC(=O)c2ccccc2)C(OC(=O)c2ccccc2)C1O (stereo not shown) [Compound K26] : moderate

Cytotoxicity activity reading for CC1(C)CC2C3=CCC4C5(C)CCC(O)C(C)(COC(=O)c6ccccc6)C5CCC4(C)C3(C)CC(O)C2(CO)C(OC(=O)c2ccccc2)C1O (stereo not shown) [Compound K30] : moderate

Cytotoxicity activity reading for CC1(C)CC2C3=CCC4C5(C)CCC(O)C(C)(CO)C5CCC4(C)C3(C)CC(OC(=O)c3ccccc3)C2(COC(=O)c2ccccc2)C(O)C1O (stereo not shown) [Compound K28] : moderate

Cytotoxicity activity reading for CC1(C)CC2C3=CCC4C5(C)CCC(O)C(C)(COC(=O)c6ccccc6)C5CCC4(C)C3(C)CC(OC(=O)c3ccccc3)C2(COC(=O)c2ccccc2)C(OC(=O)c2ccccc2)C1O (stereo not shown) [Compound K12] : weak

Cytotoxicity activity reading for CC1(C)CC2C3=CCC4C5(C)CCC(O)C(C)(CO)C5CCC4(C)C3(C)CC(O)C2(COC(=O)c2ccccc2)C(O)C1OC(=O)c1ccccc1 (stereo not shown) [Compound K25] : moderate
